Origin of measurements: patent US8580556B2

- System: tetA promoter (PtetA)-lacZ reporter in E. coli KM3
- Format: cell-based
- assay-conditions: Table 4; chlorimuron 20 μg/ml (20 ppm); 48 hrs at 30° C.
endpoint-label: relative β-galactosidase activity, inducer Ci
// response body must contain only the number

molecule | endpoint-result
L1-22: library L1 hit, sulfonylurea-responsive TetR(B) variant, SEQ ID NO: 7 (protein, Sulfornylurea responsive repressor L1-22) MGSRLDKSKVINSALELLNEVGIEGLTTRKLAQKLGVEQPTLYWHVKNKRALLDALAIEMMDRHHTHFCPLEGESWQDFLRNTAKSYRCALLSHRDGAKVCLGTAITEKQYETKENNLAFLCQQGFSLENALYARQAVRVFTLGCVLFDQEMQVAKEERETPTTDSMPPLLRQASELLDHQGAEPAFLFGLELIICGLEKQLKSESGS | 10.4

Shifting focus to the molecule that follows.
Task: Reported relative β-galactosidase activity, inducer Ci for L1-28: library L1 hit, sulfonylurea-responsive TetR(B) variant (protein, Sulfonylurea responsive repressor L1-28) MGSRLDKSKVINSALELLNEVGIEGLTTRKLAQKLGVEQPTLYWHVKNKRALLDALAIEMLDRHATHFCPLEGESWQDFLRNNAKSMRCALLSHRDGAKVWLGTAWTEKQYETPENVLAFLCQQGFSLENALYASRAVVTFTLGCVLTDQEKQVAKEERETPTTDSMPPLLRQAWELLDHQGAEPAFLFGLELIICGLEKQLKCESGS : what is it?
Result: 14.6
